test system: U2OS; experiment: Multiplex assay against U2OS; assay type: toxicity, cell-based; conditions: human, 12 h, 10 µM, compound concentration 10 uM, replicate 2
I'd be grateful if you could share measured Population Healthy Nuclei (%) for these entries.
Give bare numbers, in %.

Some compounds with known Population Healthy Nuclei (%) results, for comparison:
CN(C)c1ccnc2sc3c(=O)n(N4CCCCCC4)cnc3c12 = 71
CSCC[C@H](NC=O)C(=O)N[C@@H](CC(C)C)C(=O)N[C@@H](Cc1ccccc1)C(=O)O = 74
O=C1COc2nccc(-c3ccccc3F)c2CN1Cc1cc(C(F)(F)F)cc(C(F)(F)F)c1 = 76
CCNC1(C(N)=O)CCN(c2ncnc3c2nc(-c2ccccc2Cl)n3-c2ccc(Cl)cc2)CC1 = 60
C[C@H]1[C@H]2CC[C@H]3[C@@H]4CC=C5C[C@@H](N(C)C)CC[C@]5(C)[C@H]4CC[C@]23CN1C = 68

Report Population Healthy Nuclei (%) for each item below.
1. c1cc(OCCCN2CCCCC2)ccc1CN1CCCCC1
2. Cc1ccc(C(C)(O)c2nc3ccccc3s2)c(C)c1 (centres undefined)
3. COc1ccc2c(c1)C(C(=O)N(Cc1ccc(N(C)C)cc1)c1ccc(C(C)C)cc1)CCC2.Cl (centres undefined)
4. CCCN1CCC[C@@H]2Cc3n[nH]cc3C[C@H]21.Cl [QUINPIROLE HYDROCHLORIDE]

1. 80
2. 77
3. 60
4. 85

====

tested on: Fibroblast; assay: Multiplex assay against human fibroblast; assay type: toxicity, cell-based; settings: 48 h, 10 µM, compound concentration 10 uM, replicate 2
outcome measure: Population Tubulin-Different-Phenotype (%)

N#Cc1c(N)nc(SCc2csc(-c3ccc(Cl)cc3)n2)c(C#N)c1-c1ccc(OCCO)cc1 [CAPADENOSON] = 95%

Answer for every listed entry: what is its Population Tubulin-Different-Phenotype (%)? The entries follow.
1. CSCC[C@H](NC=O)C(=O)N[C@@H](CC(C)C)C(=O)N[C@@H](Cc1ccccc1)C(=O)O
2. CCCn1c(=O)c2[nH]c(C3CCCC3)nc2n(CCC)c1=O
3. COc1ccc2c(c1)C(C(=O)N(Cc1ccc(N(C)C)cc1)c1ccc(C(C)C)cc1)CCC2.Cl (centres undefined)
4. Oc1c(CN2CCN(c3ccccn3)CC2)cc(Cl)c2cccnc12
5. c1cc(OCCCN2CCCCC2)ccc1CN1CCCCC1 [JNJ-5207852]
6. C[C@H]1[C@H]2CC[C@H]3[C@@H]4CC=C5C[C@@H](N(C)C)CC[C@]5(C)[C@H]4CC[C@]23CN1C [CONESSINE]

1: 47%; 2: 78%; 3: 81%; 4: 65%; 5: 66%; 6: 62%

Hi there! I need Population Tubulin-Different-Phenotype (%) for each item below, if you can.
1. CCNC1(C(N)=O)CCN(c2ncnc3c2nc(-c2ccccc2Cl)n3-c2ccc(Cl)cc2)CC1 [OTENABANT]
2. O=C1COc2nccc(-c3ccccc3F)c2CN1Cc1cc(C(F)(F)F)cc(C(F)(F)F)c1

89%
47%

====

system: Fibroblast; test: Multiplex assay against human fibroblast; assay type: toxicity, cell-based; conditions: 12 h, 10 µM, compound concentration 10 uM, replicate 1
outcome measure: Total Cell Count

The following compounds have reported results that may help.
Cc1ccc(/C(=C\CN2CCCC2)c2ccccn2)cc1 [TRIPROLIDINE] = 139
COc1cc(NC(=O)CCN2CCC(OC(=O)Nc3ccccc3-c3ccccc3)CC2)c(Cl)cc1CNC[C@H](O)c1ccc(O)c2[nH]c(=O)ccc12 [BATEFENTEROL] = 199
N[C@@]1(C(=O)O)CO[C@H]2[C@H](C(=O)O)[C@H]21 [LY-379268] = 187
CC(=O)NCCc1c(Cc2ccccc2)[nH]c2ccccc12 [LUZINDOLE] = 140
CCCn1c(=O)c2[nH]c(C3CCCC3)nc2n(CCC)c1=O = 104

Dear reader, for each entry below, please note its Total Cell Count.
1. CCNC1(C(N)=O)CCN(c2ncnc3c2nc(-c2ccccc2Cl)n3-c2ccc(Cl)cc2)CC1 [OTENABANT]
2. O=C(NCCO)c1cccc(-c2cc(Nc3ccc(OC(F)(F)F)cc3)ncn2)c1
3. CN(C)c1ccnc2sc3c(=O)n(N4CCCCCC4)cnc3c12
4. CCOc1c2c(c(OCC)c3ncccc13)CN(c1ccc(CS(=O)(=O)NC(=O)Cc3ccccc3OC)cc1C)C2=O

170
185
141
161

====

Assignment: determine reported Population Mitochondria Different-Phenotype (%) for the given molecules.
system: Fibroblast; assay: Multiplex assay against human fibroblast; format: toxicity, cell-based; conditions: 24 h, 1 µM, compound concentration 1 uM, replicate 1
Give bare numbers, in %.

Here is how some molecules turned out for Population Mitochondria Different-Phenotype (%).
CNC[C@H](O)c1ccc(O)c(O)c1 [EPINEPHRINE] = 3
Cc1ccccc1C(=O)Nc1ccc(C(=O)N2CCCC(N(C)C)c3ccccc32)cc1.Cl (stereo unspecified) = 8

Would you mind giving Population Mitochondria Different-Phenotype (%) for every molecule in the list below?
1. CCCn1c(=O)c2[nH]c(C3CCCC3)nc2n(CCC)c1=O
2. O=C(NCCO)c1cccc(-c2cc(Nc3ccc(OC(F)(F)F)cc3)ncn2)c1
3. CN1CCN(c2nc3cc(C(F)(F)F)ccc3n3cccc23)CC1.O=C(O)/C=C\C(=O)O.O=C(O)/C=C\C(=O)O
4. CC(=O)NCCc1c(Cc2ccccc2)[nH]c2ccccc12 [LUZINDOLE]
5. CN(C)CCCc1cc(C(=O)Nc2ccc(-c3ccncc3)cc2)ccc1O.Cl.Cl

2
4
2
3
3

====

test system: HEK-293T; assay: Multiplex assay against HEK293T; assay type: toxicity, cell-based; conditions: human, 12 h, 1 µM, compound concentration 1 uM, replicate 2
outcome measure: Population Membrane Permeable-Phenotype (%)
Give bare numbers, in %.

Some solved cases for reference:
C[C@@H]1C[C@H]2[C@@H]3CCC4=CC(=O)C=C[C@]4(C)[C@@]3(F)[C@@H](O)C[C@]2(C)[C@@]1(O)C(=O)CO = 0
CC1(COc2ccc3c(c2)ncn3-c2ccc3cccc(N4CCC(N)CC4)c3n2)COC1 = 1

Consider the following items and state reported Population Membrane Permeable-Phenotype (%) for each.
1. CN(C)c1ccnc2sc3c(=O)n(N4CCCCCC4)cnc3c12
2. Cc1ccc(C(C)(O)c2nc3ccccc3s2)c(C)c1 (stereo not given)
3. N[C@@]1(C(=O)O)CO[C@H]2[C@H](C(=O)O)[C@H]21

0
0
1

====

test system: U2OS; test: Multiplex assay against U2OS; format: toxicity, cell-based; conditions: human, 24 h, 1 µM, compound concentration 1 uM, replicate 2
I'd appreciate it if you could supply Population Mitotic Cells (%) values for the items below.
Answers are plain numbers, in %.

Past entries and their recorded results:
O=C1COc2nccc(-c3ccccc3F)c2CN1Cc1cc(C(F)(F)F)cc(C(F)(F)F)c1 = 16
COc1cc(C(=O)N(CCCc2ccccc2)Cc2ccc(CC(=O)O)cc2)cc(OC)c1C = 26
O=S(=O)(c1ccccc1)c1cnc2c(N3CCNCC3)cccc2c1 [INTEPIRDINE] = 30
CC(C)(C)c1ccc(S(=O)(=O)Nc2ccc(Cl)cc2C(=O)c2cc[n+]([O-])cc2)cc1 [VERCIRNON] = 7
c1cc(OCCCN2CCCCC2)ccc1CN1CCCCC1 [JNJ-5207852] = 33

// each listed compound needs a value for Population Mitotic Cells (%)
1. CC(=O)NCCc1c(Cc2ccccc2)[nH]c2ccccc12 [LUZINDOLE]
2. CCOc1c2c(c(OCC)c3ncccc13)CN(c1ccc(CS(=O)(=O)NC(=O)Cc3ccccc3OC)cc1C)C2=O
3. C[C@@H]1C[C@H]2[C@@H]3CCC4=CC(=O)C=C[C@]4(C)[C@@]3(F)[C@@H](O)C[C@]2(C)[C@@]1(O)C(=O)CO [DEXAMETHASONE]
4. O=C(NCC(=O)N1CC[C@H](N[C@H]2CC[C@@](O)(c3ccc(-c4ncccn4)cn3)CC2)C1)c1cccc(C(F)(F)F)c1 [PF-4136309]
5. CNC[C@H](O)c1ccc(O)c(O)c1 [EPINEPHRINE]
6. CSc1ccccc1N1CCN(CCCCCC(=O)NC2CCCc3ccccc32)CC1.Cl (configuration not stated)
7. Cc1nc2ccc(Oc3ccc(F)cc3)cc2c(=O)n1C[C@H]1CCCN(C(C)C)C1.Cl
8. C[C@H]1[C@H]2CC[C@H]3[C@@H]4CC=C5C[C@@H](N(C)C)CC[C@]5(C)[C@H]4CC[C@]23CN1C [CONESSINE]

[11, 0, 9, 8, 25, 41, 20, 0]

I have 4 compounds here; please give me Population Mitotic Cells (%) for each one.
1. COc1c(C)cc(NC(=O)c2nn(Cc3ccc(F)cc3)c3c2CN(C(=O)c2ccc[nH]2)C[C@]3(C)C(N)=O)cc1C
2. Cl.Clc1ccc2nsnc2c1NC1=NCCN1 [TIZANIDINE HYDROCHLORIDE]
3. CC1(COc2ccc3c(c2)ncn3-c2ccc3cccc(N4CCC(N)CC4)c3n2)COC1 [CRENOLANIB]
4. O=C(O)c1cc2ccccc2c(Cc2c(O)c(C(=O)O)cc3ccccc23)c1O [PAMOIC ACID]

38
10
45
23
